B1: CPEB3 Ribozyme (parent)
chain: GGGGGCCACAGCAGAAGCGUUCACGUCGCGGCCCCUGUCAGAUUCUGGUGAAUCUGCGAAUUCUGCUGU

# Variants of: B1
# procedure-summary: self-cleavage, relative activity (ratio to wild type); higher = more cleavage; co-transcriptional
Decision: self-cleavage >= 0.5 yields label 1, all other cases yield label 0.

[
  {
    "mutation-key": "C6G A10U",
    "group": "label 0"
  },
  {
    "mutation-key": "A40U U67A",
    "group": "label 1"
  },
  {
    "mutation-key": "C7G G19A",
    "group": "label 0"
  },
  {
    "mutation-key": "U36A U43G",
    "group": "label 0"
  },
  {
    "mutation-key": "U36G U38C",
    "group": "label 0"
  },
  {
    "mutation-key": "U44A G50C",
    "group": "label 1"
  },
  {
    "mutation-key": "C35G U64G",
    "group": "label 0"
  },
  {
    "mutation-key": "U53C U55G",
    "group": "label 0"
  },
  {
    "mutation-key": "G19C C39A",
    "group": "label 0"
  },
  {
    "mutation-key": "C34A U43G",
    "group": "label 0"
  },
  {
    "mutation-key": "C24G C57U",
    "group": "label 0"
  },
  {
    "mutation-key": "G11A C33U",
    "group": "label 1"
  },
  {
    "mutation-key": "C12G U43A",
    "group": "label 1"
  },
  {
    "mutation-key": "C24A G48C",
    "group": "label 1"
  },
  {
    "mutation-key": "G58U A59U",
    "group": "label 1"
  },
  {
    "mutation-key": "A40C C66U",
    "group": "label 0"
  },
  {
    "mutation-key": "C22U C29U",
    "group": "label 0"
  },
  {
    "mutation-key": "U21G C57A",
    "group": "label 0"
  },
  {
    "mutation-key": "G2C C45A",
    "group": "label 0"
  },
  {
    "mutation-key": "G50U A52U",
    "group": "label 1"
  },
  {
    "mutation-key": "G1C G68A",
    "group": "label 0"
  },
  {
    "mutation-key": "C34U G48U",
    "group": "label 1"
  },
  {
    "mutation-key": "U62A C63G",
    "group": "label 0"
  },
  {
    "mutation-key": "G5C G58U",
    "group": "label 0"
  },
  {
    "mutation-key": "A40U A51G",
    "group": "label 1"
  },
  {
    "mutation-key": "A42G U43C",
    "group": "label 1"
  },
  {
    "mutation-key": "C18G A60G",
    "group": "label 0"
  },
  {
    "mutation-key": "G2C U44C",
    "group": "label 0"
  },
  {
    "mutation-key": "U36G G48A",
    "group": "label 0"
  },
  {
    "mutation-key": "G11U A51U",
    "group": "label 1"
  }
]

From: the RNAGym collection of RNA variant scans (doi:10.7554/elife.80360)
